Consider the following IC50 data for UniProt:P29597, collected from several reports.

Asked: Return value of IC50 for input Cn1cc(-c2cn3ncnc3c(-c3ccn([C@]4(CC#N)C[C@H](C#N)C4)c3)n2)cn1 , no commentary.
Given back: 14 nM

Asked: Give IC50 for CCNS(=O)(=O)c1ccc(NC(=O)CN2CCN(c3ncnc4[nH]ccc34)CC2)cc1
Given back: > 1000 nM

Asked: Answer with the recorded IC50 of Cn1cc(-c2cn3ncnc3c(-c3ccn([C@]4(CC#N)C[C@@H](C#N)C4)c3)n2)cn1 only.
Given back: 111 nM

Asked: Name the recorded IC50 of the molecule listed here: CC(C)NS(=O)(=O)c1ccc(NC(=O)[C@@H](C)N2CCN(c3ncnc4[nH]ccc34)CC2)cc1
Given back: > 1000 nM

Asked: Could you please provide reported IC50 for CCCCNS(=O)(=O)c1ccc(NC(=O)CN2CCN(c3ncnc4[nH]ccc34)CC2)cc1 ? Thanks!
Given back: > 1000 nM

Asked: # return recorded IC50 for input CN(C)S(=O)(=O)c1ccc(NC(=O)CN2CCN(c3ncnc4[nH]ccc34)CC2)cc1F
Given back: > 1000 nM

Asked: # return recorded IC50 for entry C[C@@H]1CN(C(=O)CC#N)CC=C1c1cc(NC(=O)C2CC2)nc2[nH]ccc12
Given back: 22 nM

Asked: Retrieve IC50 measured for COc1cc(NC(=O)CN2CCN(c3ncnc4[nH]ccc34)CC2)ccc1S(=O)(=O)N(C)C and print it.
Given back: > 1000 nM

Asked: Quick one: give measured IC50 for CCCNS(=O)(=O)c1ccc(NC(=O)CN2CCN(c3ncnc4[nH]ccc34)CC2)cc1
Given back: > 1000 nM
